# Test system: eIF2α
# Experiment: eIF2α phosphorylation measured by Western blot
# Format: cell-based
# Condition summary: Western blot; unit or reference not given
Assign class by eIF2α-P (phosphorylation of eIF2α measured by Western blot): not lower than 1 means met; lower than 1 means not met.

Molecule | Label
C=CCCCOc1ccc(C2(c3cc(C(C)(C)C)ccc3O)C(=O)Nc3ccccc32)cc1 (stereo not shown) | met
CCCc1ccc(O)c(C2(c3ccccc3)C(=O)Nc3ccccc32)c1 (stereo not shown) | met
O=C1Nc2ccccc2C1(c1ccccc1)c1ccc(O)c(F)c1 (stereo not shown) | met
CC(C)(C)c1ccc(O)c(C2(c3ccccc3)C(=O)Nc3ccc(N)cc32)c1 (stereo not shown) | met
COc1ccccc1C1(c2cc(C(C)(C)C)ccc2O)C(=O)Nc2ccccc21 (stereo not shown) | met
COc1ccccc1C1(c2ccccc2)C(=O)Nc2ccccc21 (stereo not shown) | met
CCCCc1ccc(C2(c3ccccc3)C(=O)Nc3ccccc32)cc1 (stereo not shown) | not met
CC(C)(C)c1ccc(O)c(C2(c3ccccc3)C(=O)Nc3cccc(Cl)c32)c1 (stereo not shown) | met
COc1ccc(S(=O)(=O)Nc2cc(O)c(C)cc2C2(c3ccccc3)C(=O)Nc3ccccc32)cc1 (stereo not shown) | met
Cc1cc(C2(c3ccccc3)C(=O)Nc3ccccc32)c(NS(=O)(=O)c2ccc(Oc3ccccc3)cc2)cc1O (stereo not shown) | met
CC(C)(C)c1ccc(O)c(C2(c3ccccc3)C(=O)Nc3ccc(I)cc32)c1 (stereo not shown) | met
CCCCCc1ccc(O)c(C2(c3ccccc3)C(=O)Nc3ccccc32)c1 (stereo not shown) | met
CCCCc1ccc(O)c(C2(c3ccccc3)C(=O)Nc3ccccc32)c1 (stereo not shown) | met
Cc1cccc(C2(c3cc(C(C)(C)C)ccc3O)C(=O)Nc3ccccc32)c1 (stereo not shown) | met
O=C1Nc2ccccc2C1(c1ccccc1)c1ccccc1O (stereo not shown) | met
CC(C)Cc1ccc(C2(c3ccccc3)C(=O)Nc3ccccc32)cc1 (stereo not shown) | not met
CCCCCCc1ccc(O)c(C2(c3ccccc3)C(=O)Nc3ccccc32)c1 (stereo not shown) | met
O=C1Nc2ccc(I)cc2C1(c1ccccc1)c1ccccc1 | met
Cc1cc(C2(c3ccccc3)C(=O)Nc3ccccc32)c(NS(=O)(=O)c2ccc(-c3ccccc3)cc2)cc1O (stereo not shown) | met
CCc1ccc(O)c(C2(c3ccccc3)C(=O)Nc3ccccc32)c1 (stereo not shown) | met
O=C1Nc2c(CO)ccc(Cl)c2C1(c1ccccc1)c1ccccc1 | met
CC(C)(C)c1ccc(OCC(=O)O)c(C2(c3ccccc3)C(=O)Nc3ccccc32)c1 (stereo not shown) | met
CC(C)(C)c1ccc(O)c(C2(c3ccccc3)C(=O)Nc3c(C(=O)O)cccc32)c1 (stereo not shown) | met
O=C1Nc2ccccc2C1(c1ccc(Cl)cc1)c1ccccc1O (stereo not shown) | met
COc1ccccc1C1(c2ccc(C(C)(C)C)cc2)C(=O)Nc2ccccc21 (stereo not shown) | met
CCc1ccc2c(c1)NC(=O)C2(c1ccccc1)c1cc(C(C)(C)C)ccc1O (stereo not shown) | met
CC(C)(C)c1ccc(O)c(C2(c3ccccc3)C(=O)Nc3c(C(F)(F)F)cccc32)c1 (stereo not shown) | not met
O=C1Nc2cc(Br)ccc2C1(c1ccccc1)c1ccccc1 | met
Cc1cc(C2(c3ccccc3)C(=O)Nc3c(C(=O)O)cccc32)c(NS(C)(=O)=O)cc1O (stereo not shown) | not met
CC(C)(C)c1ccc(O)c(C2(c3cccc(F)c3)C(=O)Nc3ccccc32)c1 (stereo not shown) | met
CC(C)(C)c1ccc(O)c(C2(C3CCCCC3)C(=O)Nc3ccccc32)c1 (stereo not shown) | met
O=C1Nc2ccccc2C1(c1ccccc1)c1ccc(O)cc1 (stereo not shown) | met
O=C1Nc2ccccc2C1(c1ccccc1)c1ccc(OCCO)cc1 (stereo not shown) | not met
